Assay: Pharmacokinetics of single intraperitoneal injection in mice (LC-MS/MS, plasma and brain tissue)
Assay type: in vivo, male C57BL/6J mice
Settings: male, C57BL/6J, mouse, ip, Brain tissue, i.p. 30 mg/kg
Measured quantity: AUC(0-t) (ng·h/mL)
Report only the number, with the unit ng·h/mL understood.

Qu. Report measured AUC(0-t); entry is O=C(O)C1CN(C(c2ccccc2)P(=O)(O)O)CCN1 (stereo not shown)
Ans. 523

* * *

Test: Pharmacokinetics of single intraperitoneal injection in mice (LC-MS/MS, plasma and brain tissue)
Format: in vivo, male C57BL/6J mice
Conditions: male, C57BL/6J, mouse, ip, Brain tissue, i.p. 30 mg/kg
Measured quantity: Tmax (min)
Give the value, in units of min, as a plain number.

Qu. Item O=C(O)C1CN(C(c2ccccc2)P(=O)(O)O)CCN1 (stereo not shown) [LK-2] : provide Tmax
Ans. 30

* * *

Assay: Pharmacokinetics of single intraperitoneal injection in mice (LC-MS/MS, plasma and brain tissue)
Format: in vivo, male C57BL/6J mice
Settings: male, C57BL/6J, mouse, ip, Plasma, i.p. 30 mg/kg
Measured quantity: half-life (min)
Lab book: enter the figure in min, no units written.

Qu. Please list half-life recorded for the compound O=C(O)C1CN(C(c2ccccc2)P(=O)(O)O)CCN1 (stereo not shown) [LK-2]
Ans. 34.6

* * *

Assay: Pharmacokinetics of single intraperitoneal injection in mice (LC-MS/MS, plasma and brain tissue)
Format: in vivo, male C57BL/6J mice
Conditions: male, C57BL/6J, mouse, ip, Plasma, i.p. 30 mg/kg
Measured quantity: AUC(0-t)
Please don't drop the unit; write it after the number.

Qu. Give AUC(0-t) for O=C(O)C1CN(C(c2ccccc2)P(=O)(O)O)CCN1 (stereo not shown) [LK-2]
Ans. 69800 ng·h/mL

* * *

Test: Pharmacokinetics of single intraperitoneal injection in mice (LC-MS/MS, plasma and brain tissue)
Assay type: in vivo, male C57BL/6J mice
Details: male, C57BL/6J, mouse, ip, Plasma, i.p. 30 mg/kg, read-out: MRT(0-∞)
Method: LC-MS/MS method was used to measure the concentration of LK-2 in plasma and brain tissue. LK-2 was dissolved in 0.9% saline to a concentration of 1 mg/ml. […] LC-MS/MS method for quantification of LK-2 in plasma and brain tissue samples was developed using LC-MS/MS-T_API4000 instrument. […] Pharmacokinetic parameters and average concentrations at each time point were calculated using DAS 2.0 software through non-compartmental analysis (NCA), as shown in Table 1.
Measured quantity: MRT inf (min)
Write the value in min as a bare number.

Qu. Hello, please tell me recorded MRT inf for this one: O=C(O)C1CN(C(c2ccccc2)P(=O)(O)O)CCN1 (stereo not shown)
Ans. 43.3

* * *

Biological target: GluN1+NR2B (Homo sapiens, UniProt Q05586+Q13224)
Sequence (Q13224 27-1484, other chains not shown): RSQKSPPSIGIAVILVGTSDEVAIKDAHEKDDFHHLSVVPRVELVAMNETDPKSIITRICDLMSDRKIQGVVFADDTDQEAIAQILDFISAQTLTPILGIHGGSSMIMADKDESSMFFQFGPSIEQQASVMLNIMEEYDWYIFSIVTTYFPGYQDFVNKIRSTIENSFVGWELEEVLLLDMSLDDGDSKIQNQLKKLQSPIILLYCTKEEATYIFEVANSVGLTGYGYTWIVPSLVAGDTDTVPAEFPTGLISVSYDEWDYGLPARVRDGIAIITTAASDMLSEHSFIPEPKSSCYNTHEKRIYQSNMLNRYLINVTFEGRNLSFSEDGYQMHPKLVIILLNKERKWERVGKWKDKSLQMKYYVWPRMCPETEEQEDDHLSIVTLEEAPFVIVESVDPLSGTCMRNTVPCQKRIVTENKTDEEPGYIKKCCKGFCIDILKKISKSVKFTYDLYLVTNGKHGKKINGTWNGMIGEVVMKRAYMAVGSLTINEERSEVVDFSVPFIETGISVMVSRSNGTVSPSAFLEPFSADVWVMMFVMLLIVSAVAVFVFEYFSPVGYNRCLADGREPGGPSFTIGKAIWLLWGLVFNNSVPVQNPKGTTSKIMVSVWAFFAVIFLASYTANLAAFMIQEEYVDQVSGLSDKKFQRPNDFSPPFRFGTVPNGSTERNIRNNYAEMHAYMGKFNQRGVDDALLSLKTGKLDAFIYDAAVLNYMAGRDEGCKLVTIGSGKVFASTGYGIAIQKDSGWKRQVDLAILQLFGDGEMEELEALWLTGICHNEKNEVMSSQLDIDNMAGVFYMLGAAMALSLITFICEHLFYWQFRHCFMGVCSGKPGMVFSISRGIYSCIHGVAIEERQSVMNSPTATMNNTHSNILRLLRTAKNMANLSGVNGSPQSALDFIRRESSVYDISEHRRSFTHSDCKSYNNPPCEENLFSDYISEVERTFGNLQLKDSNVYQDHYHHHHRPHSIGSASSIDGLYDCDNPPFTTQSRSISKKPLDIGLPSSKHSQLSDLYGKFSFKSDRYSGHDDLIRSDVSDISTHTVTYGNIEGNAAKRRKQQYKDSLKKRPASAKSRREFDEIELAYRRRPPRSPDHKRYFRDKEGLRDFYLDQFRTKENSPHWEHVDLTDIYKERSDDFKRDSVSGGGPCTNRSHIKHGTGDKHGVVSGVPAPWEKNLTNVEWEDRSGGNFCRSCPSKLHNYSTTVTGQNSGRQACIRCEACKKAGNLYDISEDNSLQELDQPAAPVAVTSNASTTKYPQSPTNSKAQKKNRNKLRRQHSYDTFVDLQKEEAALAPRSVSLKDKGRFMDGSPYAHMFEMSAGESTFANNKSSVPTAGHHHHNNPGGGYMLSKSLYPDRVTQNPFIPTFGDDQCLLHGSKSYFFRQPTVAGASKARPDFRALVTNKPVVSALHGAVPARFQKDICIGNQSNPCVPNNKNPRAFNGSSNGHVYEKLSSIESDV
Test: Whole-cell patch clamp, blocking of GluN1+NR2B NMDAR current in CHO cells
Conditions: 100 μM NMDA and 1 μM glycine, read-out: IC50 of competitive antagonism against glutamate binding GluN1+NR2B currents
Measured quantity: pIC50
Note on pIC50: it is the negative log10 of concentration, concentration in mol/L.

Qu. # lookup: GluN1+NR2B (Homo sapiens, UniProt Q05586+Q13224) pIC50, key = O=C(O)C1CN(C(c2ccccc2)P(=O)(O)O)CCN1 (stereo not shown)
Ans. 3.41

* * *

Assay: Pharmacokinetics of single intraperitoneal injection in mice (LC-MS/MS, plasma and brain tissue)
Assay type: in vivo, male C57BL/6J mice
Conditions: male, C57BL/6J, mouse, ip, Plasma, i.p. 30 mg/kg, read-out: MRT(0-t)
Method: LC-MS/MS method was used to measure the concentration of LK-2 in plasma and brain tissue. LK-2 was dissolved in 0.9% saline to a concentration of 1 mg/ml. […] LC-MS/MS method for quantification of LK-2 in plasma and brain tissue samples was developed using LC-MS/MS-T_API4000 instrument. […] Pharmacokinetic parameters and average concentrations at each time point were calculated using DAS 2.0 software through non-compartmental analysis (NCA), as shown in Table 1.
Measured quantity: MRT last (min)
Provide the reading as a plain figure in min.

Qu. Hello, please tell me recorded MRT last for this one: O=C(O)C1CN(C(c2ccccc2)P(=O)(O)O)CCN1 (stereo not shown)
Ans. 41.6

* * *

Assay: Pharmacokinetics of single intraperitoneal injection in mice (LC-MS/MS, plasma and brain tissue)
Type: in vivo, male C57BL/6J mice
Details: male, C57BL/6J, mouse, ip, Brain tissue, i.p. 30 mg/kg
Measured quantity: half-life (h)
Write the number in h without appending the unit.

Qu. Please list half-life recorded for the compound O=C(O)C1CN(C(c2ccccc2)P(=O)(O)O)CCN1 (stereo not shown)
Ans. 2.3

* * *

Assay: Pharmacokinetics of single intraperitoneal injection in mice (LC-MS/MS, plasma and brain tissue)
Assay type: in vivo, male C57BL/6J mice
Settings: male, C57BL/6J, mouse, ip, Plasma, i.p. 30 mg/kg
Measured quantity: Tmax (min)
All answers are understood in min, so give the number only.

Qu. For O=C(O)C1CN(C(c2ccccc2)P(=O)(O)O)CCN1 (stereo not shown) , write its Tmax.
Ans. 30

* * *

Test: Pharmacokinetics of single intraperitoneal injection in mice (LC-MS/MS, plasma and brain tissue)
Format: in vivo, male C57BL/6J mice
Conditions: male, C57BL/6J, mouse, ip, Brain tissue, i.p. 30 mg/kg, read-out: MRT(0-t)
Measured quantity: MRT last (h)
Value expressed in h; do not type the unit.

Qu. Report measured MRT last; entry is O=C(O)C1CN(C(c2ccccc2)P(=O)(O)O)CCN1 (stereo not shown) [LK-2]
Ans. 1.76

The origin of these recorded values is patent US20250120988A1.
